experimental.target: Progesterone receptor (Rattus norvegicus) (UniProt Q63449)
Sequence (whole entry): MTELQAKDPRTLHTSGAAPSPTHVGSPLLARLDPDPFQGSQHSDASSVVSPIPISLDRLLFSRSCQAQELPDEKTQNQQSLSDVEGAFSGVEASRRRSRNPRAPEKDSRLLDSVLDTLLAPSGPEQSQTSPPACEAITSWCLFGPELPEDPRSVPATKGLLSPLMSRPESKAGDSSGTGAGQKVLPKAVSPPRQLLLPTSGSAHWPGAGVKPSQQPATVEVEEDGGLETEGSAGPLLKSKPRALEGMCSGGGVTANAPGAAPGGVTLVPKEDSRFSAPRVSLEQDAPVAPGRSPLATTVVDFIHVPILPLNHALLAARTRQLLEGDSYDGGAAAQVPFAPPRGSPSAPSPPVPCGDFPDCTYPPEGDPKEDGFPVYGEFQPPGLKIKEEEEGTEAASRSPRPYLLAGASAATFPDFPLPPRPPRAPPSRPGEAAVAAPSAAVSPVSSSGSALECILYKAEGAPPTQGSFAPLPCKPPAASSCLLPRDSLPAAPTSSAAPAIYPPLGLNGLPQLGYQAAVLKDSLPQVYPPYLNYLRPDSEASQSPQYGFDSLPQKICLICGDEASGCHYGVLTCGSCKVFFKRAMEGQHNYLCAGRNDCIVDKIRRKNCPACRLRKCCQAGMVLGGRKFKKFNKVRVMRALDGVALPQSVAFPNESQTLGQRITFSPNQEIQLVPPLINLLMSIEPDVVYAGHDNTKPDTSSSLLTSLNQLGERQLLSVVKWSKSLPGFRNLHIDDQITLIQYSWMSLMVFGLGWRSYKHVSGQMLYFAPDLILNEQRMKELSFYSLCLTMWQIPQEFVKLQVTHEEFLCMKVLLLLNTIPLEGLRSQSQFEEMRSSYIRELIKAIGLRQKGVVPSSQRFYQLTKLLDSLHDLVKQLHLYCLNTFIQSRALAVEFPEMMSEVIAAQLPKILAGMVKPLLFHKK
protocol.notes: Binding affinity to rat uterus progesterone receptor at 0.01 uM
Listed below: Activity values for each entry.
A number alone suffices; assume %.

C[C@]12CCC(=O)C[C@@H]1CC[C@@H]1[C@@H]2CC[C@]2(C)[C@@H](O)CC[C@@H]12    3
C[C@]12CC[C@@H]3c4ccc(O)cc4CC[C@H]3[C@@H]1CC[C@@H]2O    6
C[C@@H]1C[C@H]2[C@@H]3CCC4=CC(=O)C=C[C@]4(C)[C@@]3(F)[C@@H](O)C[C@]2(C)[C@@]1(O)C(=O)CO    0

--- query ---
Activity lookup needed for CC1(C)CC[C@@]2(CC[C@H]3[C@@H]4CCc5ccccc5[C@H]4CC[C@@]32C)OC1=O , thanks.
0
